Entry source: patent US20100221197A1

Task for the reader: assign each of the following compounds its reported minimum inhibitory concentration.
- Tested on: B. subtile(JCM2151)
- test name: Antimicrobial test, growth inhibition minimum concentration
- Format: cell-based, Bacillus subtilis
- run parameters: Table 2
Answers are plain numbers, in ppm.

The following compounds have reported results that may help.
CCCCCC[C@@H](O)C/C=C\CCCCCCCC(=O)OCC(O)CO (stereo partly drawn) [ricinoleic acid monoglyceride] : 25
CCCCCCCCCCCCCC(=O)OCC(O)COCC(O)CO (stereo not drawn) [diglycerin myristic acid monoester] : 25
CCCCCCCCCCCC(=O)OCC(O)COCC(O)CO (stereo not drawn) [diglycerin lauric acid monoester] : 100
CCCCCCCCCCCC(=O)OCC(O)CO (stereo not drawn) [lauric acid monoglyceride] : 25

Look up minimum inhibitory concentration: CCCCCCC(O)CC=CCCCCCCCC(=O)OCC(O)COCC(O)CO (stereo not drawn) [diglycerin ricinoleic acid monoester, diglycerine ricinoleic acid monoester]
50

---

Task for the reader: assign each of the following compounds its reported minimum inhibitory concentration.
- Tested on: B. cereus(JCM2152)
- test name: Antimicrobial test, growth inhibition minimum concentration
- Assay type: cell-based, Bacillus cereus
- run parameters: Table 2
Just the number plus its unit, please.

Give minimum inhibitory concentration for each listed item.
1. CCCCCCCCCCCC(=O)OCC(O)CO (centres unmarked) [lauric acid monoglyceride]
2. CCCCCC[C@@H](O)C/C=C\CCCCCCCC(=O)OCC(O)CO (some centres unmarked) [ricinoleic acid monoglyceride]
3. CCCCCCC(O)CC=CCCCCCCCC(=O)OCC(O)COCC(O)CO (centres unmarked)
4. CCCCCCCCCCCCCC(=O)OCC(O)CO (centres unmarked) [myristic acid monoglyceride]
5. CCCCCCCCCCCC(=O)OCC(O)COCC(O)CO (centres unmarked)

["25 ppm", "12.5 ppm", "50 ppm", "400 ppm", "100 ppm"]
